# measurement_target: human JAK1 (Homo sapiens (Human), UniProt P23458)
# Sequence (P23458 whole entry): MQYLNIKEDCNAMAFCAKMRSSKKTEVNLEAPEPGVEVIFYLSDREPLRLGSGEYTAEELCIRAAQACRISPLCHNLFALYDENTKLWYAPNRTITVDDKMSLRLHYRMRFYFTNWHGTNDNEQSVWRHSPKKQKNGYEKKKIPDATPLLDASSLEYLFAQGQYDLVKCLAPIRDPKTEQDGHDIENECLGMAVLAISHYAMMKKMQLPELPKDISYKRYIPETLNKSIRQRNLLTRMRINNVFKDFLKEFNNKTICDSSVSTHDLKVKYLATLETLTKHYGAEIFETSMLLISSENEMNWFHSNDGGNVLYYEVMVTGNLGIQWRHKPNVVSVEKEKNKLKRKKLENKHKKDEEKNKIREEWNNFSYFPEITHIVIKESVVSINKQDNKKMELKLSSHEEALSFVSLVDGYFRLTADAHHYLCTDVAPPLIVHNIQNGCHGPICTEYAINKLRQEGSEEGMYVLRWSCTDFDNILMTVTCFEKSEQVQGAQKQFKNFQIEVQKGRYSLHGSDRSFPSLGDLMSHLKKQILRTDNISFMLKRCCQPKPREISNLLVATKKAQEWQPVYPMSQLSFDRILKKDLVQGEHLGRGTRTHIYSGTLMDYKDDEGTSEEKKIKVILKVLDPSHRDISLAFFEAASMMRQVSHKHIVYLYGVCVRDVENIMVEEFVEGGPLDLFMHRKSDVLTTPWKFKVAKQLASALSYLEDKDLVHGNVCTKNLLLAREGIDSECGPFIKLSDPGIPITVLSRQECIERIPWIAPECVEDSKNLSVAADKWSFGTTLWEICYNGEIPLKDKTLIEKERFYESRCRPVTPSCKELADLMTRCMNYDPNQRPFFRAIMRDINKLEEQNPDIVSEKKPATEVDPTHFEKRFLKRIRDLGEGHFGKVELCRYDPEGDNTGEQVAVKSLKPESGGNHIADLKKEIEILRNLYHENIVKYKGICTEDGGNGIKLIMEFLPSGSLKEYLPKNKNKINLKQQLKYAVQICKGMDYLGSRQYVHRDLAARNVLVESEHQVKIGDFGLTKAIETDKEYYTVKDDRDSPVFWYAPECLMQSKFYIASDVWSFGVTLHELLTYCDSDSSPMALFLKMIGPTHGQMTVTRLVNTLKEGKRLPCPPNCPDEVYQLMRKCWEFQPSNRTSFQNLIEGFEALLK
# experiment_description: JAK1 TR-FRET kinase assay
# Assay type: biochemical
pIC50: −log10 of the molar value.
observable: pIC50

compound	reading
CCC(=O)c1cnc(Nc2cc(OCCOC)n(C)n2)cc1Nc1cccc(-c2ncn(C)n2)c1OC [Compound 24A]	< 6.30

* * *

So I've got IC50 readings for human JAK3 (Homo sapiens (Human)), take a look.

compound	IC50
CCC(=O)c1cnc(Nc2ccn(CC3COC3)n2)cc1Nc1cccc(-c2ncn(C)n2)c1OC [Compound 21R]	50 to 500 nM
CCC(=O)c1cnc(Nc2ccc(-n3cnccc3=O)cn2)cc1Nc1cccc(-c2ncn(C)n2)c1OC [Compound 15Y]	50 to 500 nM
CCC(=O)c1cnc(Nc2ccc(-n3ccccc3=O)cn2)cc1Nc1cccc(-c2ncn(C)n2)c1OC [Compound 15A]	≥ 500 nM
CCC(=O)c1cnc(Nc2ccc(C(C)(C)NC)nn2)cc1Nc1cccc(-c2ncn(C)n2)c1OC	≥ 500 nM
CCC(=O)c1cnc(Nc2cnc(O[C@@H]3CCNC3)cn2)cc1Nc1cccc(-c2ncn(C)n2)c1OC [Compound 18SS]	≥ 500 nM
CCC(=O)c1cnc(Nc2cccc(CN3CCCC3)n2)cc1Nc1cccc(-c2ncn(C)n2)c1OC	≥ 500 nM
CCC(=O)c1cnc(Nc2ccc(S(C)(=N)=O)cn2)cc1Nc1nccc(-c2ncn(C)n2)c1OC (stereo not drawn) [Compound 13L]	≥ 500 nM
CCC(=O)c1cnc(Nc2ccc(OCCN3CCCC3)nn2)cc1Nc1cccc(-c2ncn(C)n2)c1OC [Compound 18CC]	≥ 500 nM
CCC(=O)c1cnc(NC2=NN(C(=O)C3CC3)CC2)cc1Nc1cccc(-c2ncn(C)n2)c1OC [Compound 26A]	≥ 500 nM
CCC(=O)c1cnc(Nc2ccc(O[C@H]3CCN(C)C3)nn2)cc1Nc1cccc(-c2ncn(C)n2)c1OC [Compound 18GG]	≥ 500 nM
CCC(=O)c1cnc(Nc2cnc(O[C@H]3CCN(C)C3)cn2)cc1Nc1cccc(-c2ncn(C)n2)c1OC [Compound 18TT]	≥ 500 nM
CCC(=O)c1cnc(NC(=O)[C@@H]2C[C@H]2NC(=O)OC(C)(C)C)cc1Nc1cccc(-c2ncn(C)n2)c1OC [Compound 22H]	≥ 500 nM
CCC(=O)c1cnc(Nc2ccc(OCC(C)(C)O)cn2)cc1Nc1cccc(-c2ncn(C)n2)c1OC [Compound 18E]	50 to 500 nM
CCC(=O)c1cnc(Nc2ccn(-c3ccccn3)n2)cc1Nc1cccc(-c2ncn(C)n2)c1OC [Compound 21E]	≥ 500 nM
CCC(=O)c1cnc(Nc2ccn([C@H]3C[C@H](OC)C3)n2)cc1Nc1cccc(-c2ncn(C)n2)c1OC [Compound 21L]	≥ 500 nM
